# run description: protein stability index of a GFP-peptide fusion (yeast GPS) (PSI 1-4); higher = more stable; sorted into four equal gates, so the index is relative within each strain
# stated conditions: san1∆
reported metric: protein stability index

sequence_data="ITNKHQEGLAKFGACVA [RPN2]" measured_result=2.54
sequence_data="DRDALSGWGAVVYIIKK [PUP3]" measured_result=2.99
sequence_data="KSNSTGNISSSTVKKKD [REC8]" measured_result=2.83
sequence_data="TPYNADFDGDEMNLHVP [RPO31]" measured_result=3.07
sequence_data="MSNIVGIEYNRVTNTTS [RPC40]" measured_result=2.73
sequence_data="ASLVDYVQVRQPIFVAH [RPS5]" measured_result=2.1
sequence_data="IPGEEVEETEVPTVPPS [MED4]" measured_result=2.44
sequence_data="ETLEHNPVALEQKLVDL [BRR2]" measured_result=2.43
sequence_data="PRRFGKGSRQCRVCSSH [RPS29B]" measured_result=2.97
sequence_data="AVPLQIVSPQSNKPCMG [RPO21]" measured_result=2.03
sequence_data="SLFHTAVSVANGFMHAG [RPN2]" measured_result=1.29
sequence_data="GDQFLRYVNLLGVTYSS [PRE4]" measured_result=2.1
sequence_data="ELKINLPLTEHKSPNLS [SRB4]" measured_result=2.87
sequence_data="QDGGIMGSLINGITLAL [SKI6]" measured_result=2.53
sequence_data="PLQSMDIEQLEYSRDCF [RPB3]" measured_result=3.21
sequence_data="TNPSSIFGGAGGVPTTS [YOR098C/NUP1]" measured_result=2.15
sequence_data="NVKTSVSQLYRISEKSV [RPO31]" measured_result=3.12
sequence_data="LILIPGETMWVPIKSSK [RPN13]" measured_result=2.61
sequence_data="ESMDFLVLADAFDIELS [YCS4]" measured_result=2.64
sequence_data="EKKDDNSSKPAFSFGAK [YJL041W/NSP1]" measured_result=2.02
sequence_data="LIAEESEDDSESGKVFI [RPB2]" measured_result=3.48
sequence_data="MARTKQTARKSTGGKAP [HHT1]" measured_result=3.04
sequence_data="VKTKTIELIDYDKLPAG [RET1]" measured_result=2.67
sequence_data="CGAGVFLANHKDRLYCG [RPS31]" measured_result=1.06
sequence_data="DTADEAKTLIPSLNNKI [RPB4]" measured_result=3.1
sequence_data="NNPKVKTSKRTKRWYKN [RPS11A]" measured_result=3.21
sequence_data="QIQQQQQKQQQQQQQHQ [SNF5]" measured_result=2.93
sequence_data="ITSDALEGITTTIDSLN [SMC3]" measured_result=2.9
sequence_data="LNSLTNLLSKRNQEKKM [SNM1]" measured_result=2.69
sequence_data="DQLEDLREHFKNTEEGK [QCR6]" measured_result=3.36
sequence_data="LDCDGGFIDASCIAVMA [RRP45]" measured_result=2.67

----------
# run description: protein stability index of a GFP-peptide fusion (yeast GPS) (PSI 1-4); higher = more stable; sorted into four equal gates, so the index is relative within each strain
# stated conditions: san1∆
Where protein stability index equals or exceeds 2, the correct label is Satisfied; where it does not, the label is Not satisfied.

sequence_data="SYANHLEESDVEDTLHV [YOR098C/NUP1]" class_name=Satisfied
sequence_data="KSKKSWLNRLNNWLFGW [YMR153W/NUP53]" class_name=Satisfied
sequence_data="GDLASLVLLNGRLRNKS [RPP1]" class_name=Satisfied
sequence_data="NSFYYTSLLYLSTLEPS [RPN9]" class_name="Not satisfied"
sequence_data="IDVNLNFARQLLFNNDF [RRP40]" class_name="Not satisfied"
sequence_data="VPIKSSKSGRIFALVFS [RPN13]" class_name=Satisfied
sequence_data="VRFIGDSVAAIGIPVNK [QCR2]" class_name=Satisfied
sequence_data="FGKLLQAYQFLNTFGSK [ITC1]" class_name="Not satisfied"
sequence_data="HARTAAVTHNLYYDEDI [PUP2]" class_name=Satisfied
sequence_data="LKNCKISNINIPISSET [SMC1]" class_name=Satisfied
sequence_data="NSGKQQYYRGLPLYEKN [SWP82]" class_name=Satisfied
sequence_data="TGKTLLARACAAQTNAT [RPT5]" class_name=Satisfied
sequence_data="TRPYILERARDVNIVNR [YCG1]" class_name=Satisfied
sequence_data="VSLIKKYKLISRIVEIF [YML103C/NUP188]" class_name="Not satisfied"
sequence_data="LWGPHGLNSDAEEVRNF [ECM29]" class_name=Satisfied
sequence_data="VKQLENVSSNIVKNAEQ [RPS20]" class_name=Satisfied
sequence_data="EEKQKSYKFPRGTTAVL [PUP1]" class_name=Satisfied
sequence_data="AERTMSKKETKLQENRT [SMC2]" class_name=Satisfied
sequence_data="SNIDYQTLLANSDHAKF [SNF2]" class_name=Satisfied
sequence_data="TIRYLMQKQHEMKTQAA [SNF6]" class_name=Satisfied
sequence_data="QQLVDSEKRLDHFIHLR [SNF12]" class_name=Satisfied
sequence_data="MCVSKGNASLKYIALQV [YCG1]" class_name="Not satisfied"
sequence_data="VRQKIKTLKRMIKESST [POP1]" class_name="Not satisfied"
sequence_data="VKHSPGAIKPFTPKLIY [ECM29]" class_name=Satisfied
sequence_data="GIKYHATPPLKRFKDME [SMC1]" class_name=Satisfied
sequence_data="VVKGLPDISRAVINIRD [RPO31]" class_name=Satisfied
sequence_data="LATLLGHNDWVSQVRVV [ASC1]" class_name="Not satisfied"
sequence_data="KPMNKGQHKNNTSLNIN [SWP82]" class_name=Satisfied
sequence_data="SLFTYFREAIVATEPLL [PRP8]" class_name=Satisfied

----------
// reported protein stability index for each item listed
# run description: protein stability index of a GFP-peptide fusion (yeast GPS) (PSI 1-4); higher = more stable; sorted into four equal gates, so the index is relative within each strain
# stated conditions: pdr5∆
reported metric: protein stability index

sequence_data="DLKKLNLNVYIQVFEKP [CDC53]" measured_result=2.5
sequence_data="TYSTPKRPYESSRLDAE [RPS9A]" measured_result=3.02
sequence_data="NSESTTQGGNVNLDNTA [RPT5]" measured_result=3.41
sequence_data="LKIIYTGLCSFDYSVIL [YJL039C/NUP192]" measured_result=1.5
sequence_data="IAASAFLSLLNLATKGM [REC8]" measured_result=1.52
sequence_data="NQNSSTGAGAFGTGQST [YJL041W/NSP1]" measured_result=1.99
sequence_data="KLVEIIWNDVVYGEGTS [YJL039C/NUP192]" measured_result=3.26

----------
# run description: protein stability index of a GFP-peptide fusion (yeast GPS) (PSI 1-4); higher = more stable; sorted into four equal gates, so the index is relative within each strain
# stated conditions: san1∆
Reported protein stability index is given for each of the following sequences.
reported metric: protein stability index

sequence_data="GNVTELYGTAIGARSQG [PRE5]" measured_result=1.94
sequence_data="QRGKMHGLKQLRDSLAD [NUT2]" measured_result=1.48
sequence_data="MDETQTRAKIGGLNDPR [RPO21]" measured_result=2.3
sequence_data="WRFHTPQKYVLHPQLHE [SIN4]" measured_result=1.78
sequence_data="FASIPVSNSISRLGEEN [SNU114]" measured_result=1.81
sequence_data="AKPDARTQAGDIVSIDI [MTW1]" measured_result=3.55
sequence_data="DTKNSKSESPSEVLVDT [ISW2]" measured_result=2.97
sequence_data="NGQYAAFVKDMQVYLVP [RPC37]" measured_result=1.4
sequence_data="PKLKEGALHFVQQSEKL [YIL149C/MLP2]" measured_result=2.31
sequence_data="GGVDVGPSVESYELRNT [SNF5]" measured_result=3.04
sequence_data="ESKMRQQEAKYRNNEPA [YDL088C/ASM4]" measured_result=2.84
sequence_data="YLHDNASKVLLKIFLYL [IRR1]" measured_result=1.42
sequence_data="KVVEFAITHMIDALGTE [SCL1]" measured_result=2.27
sequence_data="SPFGGSSHAKGIVLEKL [RPS23A]" measured_result=3.12
sequence_data="IIVKDKSNDSEGDFLKS [POP1]" measured_result=3.14
sequence_data="RRYKLLTATPNSINKTT [POP1]" measured_result=2.4
sequence_data="KKEEELGVKSRLLEKSE [SNF2]" measured_result=3.06
sequence_data="NKGAKAEDVALNEQVKK [NAS6]" measured_result=2.77
sequence_data="EAQANLLTAKHGMTLRE [RPO21]" measured_result=3.14
sequence_data="RAVANRTDATFIRVIGS [RPT1]" measured_result=3.17
sequence_data="IELLCGLGKSAVNWQDK [NAS6]" measured_result=3.75
sequence_data="PSLIQEEEEDTTTTANI [NUT1]" measured_result=3.18
sequence_data="ELLEERFQDSNPYVRTK [YCS4]" measured_result=2.82
sequence_data="NISNNLQKALTVKTNDE [RPN8]" measured_result=2.82
sequence_data="EDEEEEEEVTDQLEDLR [QCR6]" measured_result=3.47
sequence_data="EGGEAEFIFGTYNMIDA [ARP7]" measured_result=2.52
sequence_data="CYVGLLTAIPILLEPIY [SNU114]" measured_result=1.28
sequence_data="EQQLFEIFAFGNIKDLP [CSN9]" measured_result=2.96
sequence_data="LCVLWDDLQSSVIPEVD [YCG1]" measured_result=2.01
sequence_data="TAKRKSRKRKPKSASNT [IRR1]" measured_result=2.6
sequence_data="DPQPFLKHVLQLIFRQQ [SNU114]" measured_result=2.44
sequence_data="KEALLGQLLKDHLIIEP [ARP9]" measured_result=1.18
sequence_data="FNRALDQSISKLQSWDK [NNF1]" measured_result=1.51
sequence_data="DDVVVLTGEAEIEQPVT [FAS1]" measured_result=2.85
sequence_data="VDGMAKVPIGLILQRLK [RGR1]" measured_result=2.22
sequence_data="PGIMLRQMNLVITLLNN [YCS4]" measured_result=1.14
sequence_data="YIFFGPIYYQKLKHMVL [RET1]" measured_result=1.28
sequence_data="AVALAASDLVLIVIDVV [SNU114]" measured_result=2.75
sequence_data="PKAVVDHINGSGKRKPT [GAL11]" measured_result=1.52
sequence_data="KTICNLLISDTESNELI [IRR1]" measured_result=2.4
sequence_data="FTNGVLAVTNLLIISCI [YML031W/NDC1]" measured_result=1.79
sequence_data="NKVVVNLNDAGLALQLF [RPN2]" measured_result=2.68
sequence_data="PQRLTVLRLATNKGPLA [MCD1]" measured_result=2.8
sequence_data="IVFDICQILDGELDVLQ [PRP8]" measured_result=2.39
sequence_data="EALLRSLLDAEEERRKK [SNF2]" measured_result=2.27
sequence_data="RALFRQLKRWYWQFNGV [RMP1]" measured_result=1.19
sequence_data="FTITVARKYLQTRWGLP [FAS2]" measured_result=1.36
sequence_data="HGTSTSAEDEENIIQRL [CDC53]" measured_result=3.13
sequence_data="GTLWAHVLKTVDYGGAE [SNU114]" measured_result=1.65
sequence_data="ENNSDSNSNNNGNKDSS [SWI1]" measured_result=3.05
sequence_data="KQYDNRITKSNEKSQAE [LRP1]" measured_result=2.77
sequence_data="CNGSALVEARSLGHQTS [MTR3]" measured_result=3.1
sequence_data="LNGGLQFVPELKEFTAK [FAS2]" measured_result=2.3
sequence_data="NGILPDDELMNWRRLSG [SSN2]" measured_result=2.98
sequence_data="KTLVALEKQEDYIDNLV [RPC37]" measured_result=2.97
sequence_data="DSIIDNIVKLCFVHRYK [IRR1]" measured_result=1.99
sequence_data="INLTQTYGISVVDVALK [NUT1]" measured_result=1.76
sequence_data="SVRLFSFLDPLNYGNIC [YJL039C/NUP192]" measured_result=2.47
sequence_data="SKEFSAYVSGLFEIYRD [YJR042W/NUP85]" measured_result=2.7
sequence_data="HVFQYANRPRLVGRKPA [RPC37]" measured_result=2.28

Reference source for all entries: the supplement of paper PMC9732359
